B1: C1orf137 (parent)
chain: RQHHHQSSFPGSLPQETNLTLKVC

variants of: B1; experiment: protein stability index of a GFP-peptide fusion (GPS, HEK-293T) (PSI 1-6); higher = more stable; conditions: c terminus: a fixed tail appended;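 further: lentivirally expressed fusions sorted by FACS into six bins by GFP to DsRed ratio, PSI derived from sequencing read proportions per bin multiplied by bin number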
Quick rule: protein stability index of at least 3 means y, below that means n.

Some solved cases for reference:
alteration: G11C
assigned_category: n
//
alteration: P10A
assigned_category: y
//
alteration: Q6C
assigned_category: n

# input for lookup
Query string: Can T17A be said to have protein stability index at or above 3?
Result string: n
